Value source: patent US20240376097A1

- Measurement Description: Metabolic Stability Study, liver microsome incubation (human)
- Assay type: in vitro ADME
- Assay Context: human liver microsomes 0.5 mg/mL, 1 μM compound, NADPH; read-out: CLint (μL × min^−1 × mg^−1) Human
Readout Type: microsomal CLint at 1 μM (µL/min/mg)
Express your answer in µL/min/mg, writing the number without its unit.

Request: For the compound shown here, CC(C)c1ccccc1C1CN(Cc2cc(F)cc(F)c2)CCN1C1CC2(CCN(c3ccc(C(=O)NS(=O)(=O)c4ccc(NC[C@H]5CC[C@](C)(O)CC5)c([N+](=O)[O-])c4)c(Oc4cnc5[nH]ccc5c4)c3)CC2)C1 (stereo partly shown) , give the reported microsomal CLint at 1 μM.
Result: 5.9

Request: // query microsomal CLint at 1 μM value for entry CC(C)c1ccccc1C1CN(Cc2ccccc2F)CCN1C1CC2(CCN(c3ccc(C(=O)NS(=O)(=O)c4ccc(NC[C@H]5CC[C@](C)(O)CC5)c([N+](=O)[O-])c4)c(Oc4cnc5[nH]ccc5c4)c3)CC2)C1 (stereo partly shown)
Result: 9.1

Request: Which microsomal CLint at 1 μM value is on record for COc1cc(CN2CCN(C3CC4(CCN(c5ccc(C(=O)NS(=O)(=O)c6ccc(NC[C@H]7CC[C@](C)(O)CC7)c([N+](=O)[O-])c6)c(Oc6cnc7[nH]ccc7c6)c5)CC4)C3)[C@H](c3ccccc3C(C)C)C2)ccc1C1CC1 ?
Result: 3.7

API: the following record is the query input.
Request: # get_value(readout='microsomal CLint at 1 μM', item= COc1ccc(CN2CCN(C3CC4(CCN(c5ccc(C(=O)NS(=O)(=O)c6ccc(NC[C@H]7CC[C@](C)(O)CC7)c([N+](=O)[O-])c6)c(Oc6cnc7[nH]ccc7c6)c5)CC4)C3)C(c3ccccc3C(C)C)C2)cc1 (stereo partly shown) )
Result: 1.1

---

- Target Desc: recombinant human Bcl-2 D103Y protein (Homo sapiens (Human), UniProt P10415, D103Y)
- Sequence (P10415 whole entry D103Y): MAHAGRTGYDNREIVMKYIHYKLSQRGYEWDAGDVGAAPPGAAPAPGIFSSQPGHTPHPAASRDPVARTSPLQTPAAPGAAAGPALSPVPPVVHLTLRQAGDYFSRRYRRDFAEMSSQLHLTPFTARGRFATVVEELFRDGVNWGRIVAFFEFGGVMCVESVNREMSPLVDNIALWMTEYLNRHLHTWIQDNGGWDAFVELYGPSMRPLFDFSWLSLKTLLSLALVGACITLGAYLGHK
- Measurement Description: Bcl-2-D103Y Biochemical Assay (TR-FRET)
- Assay Context: TR-FRET, FITC labeled Bak peptide
pIC50 overview
Lab note: report pIC50 as minus log10 of the concentration in molar units, number only.

Example compounds with recorded pIC50:
Request: Please look up its pIC50: CC(C)c1ccccc1C1CN(Cc2ccc3c(c2)OCO3)CCN1C1CC2(CCN(c3ccc(C(=O)NS(=O)(=O)c4ccc(NC[C@H]5CC[C@](C)(O)CC5)c([N+](=O)[O-])c4)c(Oc4cnc5[nH]ccc5c4)c3)CC2)C1 (stereo partly shown) [Example 122]
Result: 9.33

Request: Suppose we examine the compound COc1cc(CN2CCN(C3CC4(C3)CN(c3ccc(C(=O)NS(=O)(=O)c5ccc(NCC6CCOCC6)c([N+](=O)[O-])c5)c(Oc5cnc6[nH]ccc6c5)c3)C4)[C@H](c3ccccc3C(C)C)C2)ccc1C1CC1 [Example 319] ; what pIC50 value has been reported?
Result: 9.38

Request: Looking for the measured pIC50 of COc1ccc(CN2CCN(C3CC4(CCN(c5ccc(C(=O)NS(=O)(=O)c6ccc(NC[C@H]7CC[C@](C)(O)CC7)c([N+](=O)[O-])c6)c(Oc6cc7c(F)c[nH]c7nc6C)c5)CC4)C3)[C@H](c3ccccc3C(C)C)C2)cc1 [Example 125] , can you help?
Result: 9.48

Now for a further compound.
Request: Endpoint output: pIC50 of CNc1ccc(CN2CCN(C3CC4(C3)CN(c3ccc(C(=O)NS(=O)(=O)c5ccc(NC[C@H]6CC[C@](C)(O)CC6)c([N+](=O)[O-])c5)c(Oc5cnc6[nH]cc(F)c6c5)c3)C4)[C@H](c3ccccc3C(C)C)C2)cc1OC [Example 358] . Value?
Result: 9.96
